B1: GA-binding protein alpha chain, residues 172 to 250; numbered along this chain, Q06546 (parent)
chain: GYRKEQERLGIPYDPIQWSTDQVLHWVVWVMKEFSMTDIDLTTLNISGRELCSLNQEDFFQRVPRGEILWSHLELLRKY

Variants of: B1
Assay: abundance fitness (aPCA) (normalised: wild type 0, dead -1); higher = more abundant; growth selection in yeast, the domain comes from the species named
Conditions: Homo sapiens
Tag: rule met if measured abundance fitness is not below -0.2, rule not met if it is.

M36G	rule met
Q17G	rule met
L44R	rule not met
L41R	rule met
F59V	rule not met
S53P	rule not met
I16C	rule met
K78E	rule met

[Q] # check: abundance fitness of `P64Y` is greater than or equal to -0.2
[A] rule not met

[Q] # check: abundance fitness of `P15I` is greater than or equal to -0.2
[A] rule not met

[Q] # check: abundance fitness of `M31Y` is greater than or equal to -0.2
[A] rule not met

[Q] # check: abundance fitness of `W29K` is greater than or equal to -0.2
[A] rule not met

[Q] # check: abundance fitness of `R8P` is greater than or equal to -0.2
[A] rule not met

[Q] # check: abundance fitness of `V23Y` is greater than or equal to -0.2
[A] rule not met

[Q] # check: abundance fitness of `E57C` is greater than or equal to -0.2
[A] rule met
